Consider the following compounds; for each one, report its cell viability.
Test system: OCI-AML2
PROTOCOL DETAILS: cell viability relative to vehicle control; higher = less cytotoxic;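 also: after 48 h exposure read by CellTiter-Glo luminescence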
SETUP CONDITIONS: 10 µM; SRSF2 genotype: P95H/wt

Exam item: Which cell viability value belongs to CS(=O)(=O)CCNCc1ccc(-c2ccc3ncnc(Nc4ccc(OCc5cccc(F)c5)c(Cl)c4)c3c2)o1 [Lapatinib] ?
Marked response: 22.2%

Exam item: What do you have for CC(C)n1c(/C=C/C(O)CC(O)CC(=O)O)c(-c2ccc(F)cc2)c2ccccc21 (configuration not stated) [Fluvastatin sodium (Lescol)] ?
Marked response: 36.8%

Exam item: Now consider CCOC(=O)C1=C(C)NC(C)=C(C(=O)OCC)C1c1ccccc1/C=C/C(=O)OC(C)(C)C [Lacidipine (Lacipil, Motens)] and answer again.
Marked response: 44%

Could you tell me cell viability for each of these compounds? They are listed below.
1. O=C1OC(C(O)CO)C([O-])=C1O.[Na+] (configuration not stated) [Sodium erythorbate]
2. OCC(O)C(O)C(O)C(O)CO (configuration not stated) [Dulcitol]
3. C[C@H](CCC(=O)O)[C@H]1CC[C@H]2[C@@H]3[C@H](O)C[C@@H]4C[C@H](O)CC[C@]4(C)[C@H]3CC[C@]12C [Chenodeoxycholic acid]
4. COc1cc(F)c(C(C)C)cc1-c1ccc(C(F)(F)F)cc1CN1C(=O)O[C@H](c2cc(C(F)(F)F)cc(C(F)(F)F)c2)[C@@H]1C [Anacetrapib (MK-0859)]

Marked response:
1: 114%; 2: 105%; 3: 98.4%; 4: 91.8%

====

Tested on: MOLM14
PROTOCOL DETAILS: cell viability relative to vehicle control; higher = less cytotoxic
SETUP CONDITIONS: 10 µM; SRSF2 genotype: SRSF2 P95H/wt
MEASUREMENT LABEL: cell viability (%)
Give bare numbers, in %.

Could I get cell viability for every one of these entries?
1. O=C(NNc1nc2cc(F)ccc2n2cccc12)c1cnccn1
2. O=C(Nc1ccc2c(O)cc(S(=O)(=O)O)cc2c1)Nc1ccc2c(O)cc(S(=O)(=O)O)cc2c1 [AMI-1, free acid]
3. CC(C)(CO)n1cc(C(=O)c2cncc(NC(=O)Cc3ccc(Cl)cn3)c2)c2cnc(N)nc21
4. CC(=O)O[C@@]12CO[C@@H]1C[C@H](O)[C@@]1(C)C(=O)[C@H](O)C3=C(C)[C@@H](OC(=O)[C@H](O)[C@@H](NC(=O)OC(C)(C)C)c4ccccc4)C[C@@](O)([C@@H](OC(=O)c4ccccc4)[C@H]21)C3(C)C

Marked response:
4.38
103
64.3
7.8

====

Would you mind telling me the reported cell viability of each entry?
System: OCI-AML2
PROTOCOL DETAILS: cell viability relative to vehicle control; higher = less cytotoxic
SETUP CONDITIONS: 10 µM; SRSF2 genotype: wt/wt
Numbers only, in %.

Exam item: Data request, read-out cell viability, for CC(=O)O[C@@]12CO[C@@H]1C[C@H](O)[C@@]1(C)C(=O)[C@H](O)C3=C(C)[C@@H](OC(=O)[C@H](O)[C@@H](NC(=O)OC(C)(C)C)c4ccccc4)C[C@@](O)([C@@H](OC(=O)c4ccccc4)[C@H]21)C3(C)C [Docetaxel (Taxotere)]
Marked response: 13.3

Exam item: Quick one: CC1CCc2cc(F)cc3c(=O)c(C(=O)O)cn1c23 (centres undefined)
Marked response: 107

Exam item: // repeat for Cc1ccc(-c2c(-c3nn(C)c4ncnc(N5CC[C@H](N6CCCCC6)C5)c34)cnn2C)cc1 and report
Marked response: 102

Need cell viability for each of these compounds.
1. CC(N)C12CC3CC(CC(C3)C1)C2 (centres undefined)
2. CC(=N)NCc1cccc(CN)c1
3. CCOC(=O)C1=C(COCCN)NC(C)=C(C(=O)OC)[C@@H]1c1ccccc1Cl

Marked response:
96.6
101
39.7
